target: T1, FV-short (factor V isoform with B-domain residues 756 to 1458 deleted) (human)
T1 construct: coagulation factor V, splicing isoform FV-short, single chain, lacks the BR and retains AR2; source: BHK cells, purified
protocol-details: inhibition of prothrombinase (prothrombin activation assay); 0.1 nM cofactor species, 50 μM PCPS, 1.4 μM prothrombin, 3 μM DAPA, TFPIα-BR 0–7 μM, started with 2 nM FXa, assay buffer, 25 °C; Ki from the equation for competitive inhibition
condition-notes: both partners purified
recorded-metric: Ki (nM)
Write the answer as a number in nM, unit excluded.

Lookup: # Ki lookup, item KKGFIQRISKGGLIKTKRKRKKQRVKIAYEEIFVKNM (domain or fragment, limits not printed (refs 17, 18); taken as the whole C-terminal tail after Kunitz 3 (mature 240-276); expressed in E. coli, unglycosylated) [TFPIα-BR, fragment containing the BR sequence of TFPIα]
Found: 19.8
